Data credit: ChEMBL document CHEMBL4017535

test_system: Bromodomain-containing protein 9 (Homo sapiens, UniProt Q9H8M2)
Sequence (Q9H8M2 whole entry): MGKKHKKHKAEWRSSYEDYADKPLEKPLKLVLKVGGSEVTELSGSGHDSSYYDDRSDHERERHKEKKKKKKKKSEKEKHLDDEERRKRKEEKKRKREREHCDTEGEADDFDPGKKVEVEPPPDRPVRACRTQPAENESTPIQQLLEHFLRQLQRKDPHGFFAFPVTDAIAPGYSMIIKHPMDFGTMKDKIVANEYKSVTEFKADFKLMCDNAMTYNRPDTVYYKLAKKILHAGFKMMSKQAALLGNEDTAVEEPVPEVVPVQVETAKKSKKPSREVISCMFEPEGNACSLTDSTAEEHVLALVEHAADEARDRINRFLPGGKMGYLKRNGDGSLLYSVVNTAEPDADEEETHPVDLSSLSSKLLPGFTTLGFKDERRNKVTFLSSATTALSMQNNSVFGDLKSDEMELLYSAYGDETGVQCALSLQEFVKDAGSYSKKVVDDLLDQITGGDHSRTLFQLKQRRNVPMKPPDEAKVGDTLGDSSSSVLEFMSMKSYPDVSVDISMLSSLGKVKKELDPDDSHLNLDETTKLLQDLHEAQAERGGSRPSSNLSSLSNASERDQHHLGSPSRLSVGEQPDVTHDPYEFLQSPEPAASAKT
measurement_notes: Binding affinity to human BRD9 (R130 to V259 residues) expressed in bacterial expression system by BROMOscan assay
measure: Kd

// query State the recorded Kd for this entry: CCS(=O)(=O)Nc1ccc(Oc2ccc(F)cc2F)c(-c2cn(C)c(=O)c3[nH]ccc23)c1
// result > 1000 nM

###

test_system: Bromodomain adjacent to zinc finger domain protein 2A (Homo sapiens, UniProt Q9UIF9)
Sequence (Q9UIF9 whole entry, the tested form may be a part): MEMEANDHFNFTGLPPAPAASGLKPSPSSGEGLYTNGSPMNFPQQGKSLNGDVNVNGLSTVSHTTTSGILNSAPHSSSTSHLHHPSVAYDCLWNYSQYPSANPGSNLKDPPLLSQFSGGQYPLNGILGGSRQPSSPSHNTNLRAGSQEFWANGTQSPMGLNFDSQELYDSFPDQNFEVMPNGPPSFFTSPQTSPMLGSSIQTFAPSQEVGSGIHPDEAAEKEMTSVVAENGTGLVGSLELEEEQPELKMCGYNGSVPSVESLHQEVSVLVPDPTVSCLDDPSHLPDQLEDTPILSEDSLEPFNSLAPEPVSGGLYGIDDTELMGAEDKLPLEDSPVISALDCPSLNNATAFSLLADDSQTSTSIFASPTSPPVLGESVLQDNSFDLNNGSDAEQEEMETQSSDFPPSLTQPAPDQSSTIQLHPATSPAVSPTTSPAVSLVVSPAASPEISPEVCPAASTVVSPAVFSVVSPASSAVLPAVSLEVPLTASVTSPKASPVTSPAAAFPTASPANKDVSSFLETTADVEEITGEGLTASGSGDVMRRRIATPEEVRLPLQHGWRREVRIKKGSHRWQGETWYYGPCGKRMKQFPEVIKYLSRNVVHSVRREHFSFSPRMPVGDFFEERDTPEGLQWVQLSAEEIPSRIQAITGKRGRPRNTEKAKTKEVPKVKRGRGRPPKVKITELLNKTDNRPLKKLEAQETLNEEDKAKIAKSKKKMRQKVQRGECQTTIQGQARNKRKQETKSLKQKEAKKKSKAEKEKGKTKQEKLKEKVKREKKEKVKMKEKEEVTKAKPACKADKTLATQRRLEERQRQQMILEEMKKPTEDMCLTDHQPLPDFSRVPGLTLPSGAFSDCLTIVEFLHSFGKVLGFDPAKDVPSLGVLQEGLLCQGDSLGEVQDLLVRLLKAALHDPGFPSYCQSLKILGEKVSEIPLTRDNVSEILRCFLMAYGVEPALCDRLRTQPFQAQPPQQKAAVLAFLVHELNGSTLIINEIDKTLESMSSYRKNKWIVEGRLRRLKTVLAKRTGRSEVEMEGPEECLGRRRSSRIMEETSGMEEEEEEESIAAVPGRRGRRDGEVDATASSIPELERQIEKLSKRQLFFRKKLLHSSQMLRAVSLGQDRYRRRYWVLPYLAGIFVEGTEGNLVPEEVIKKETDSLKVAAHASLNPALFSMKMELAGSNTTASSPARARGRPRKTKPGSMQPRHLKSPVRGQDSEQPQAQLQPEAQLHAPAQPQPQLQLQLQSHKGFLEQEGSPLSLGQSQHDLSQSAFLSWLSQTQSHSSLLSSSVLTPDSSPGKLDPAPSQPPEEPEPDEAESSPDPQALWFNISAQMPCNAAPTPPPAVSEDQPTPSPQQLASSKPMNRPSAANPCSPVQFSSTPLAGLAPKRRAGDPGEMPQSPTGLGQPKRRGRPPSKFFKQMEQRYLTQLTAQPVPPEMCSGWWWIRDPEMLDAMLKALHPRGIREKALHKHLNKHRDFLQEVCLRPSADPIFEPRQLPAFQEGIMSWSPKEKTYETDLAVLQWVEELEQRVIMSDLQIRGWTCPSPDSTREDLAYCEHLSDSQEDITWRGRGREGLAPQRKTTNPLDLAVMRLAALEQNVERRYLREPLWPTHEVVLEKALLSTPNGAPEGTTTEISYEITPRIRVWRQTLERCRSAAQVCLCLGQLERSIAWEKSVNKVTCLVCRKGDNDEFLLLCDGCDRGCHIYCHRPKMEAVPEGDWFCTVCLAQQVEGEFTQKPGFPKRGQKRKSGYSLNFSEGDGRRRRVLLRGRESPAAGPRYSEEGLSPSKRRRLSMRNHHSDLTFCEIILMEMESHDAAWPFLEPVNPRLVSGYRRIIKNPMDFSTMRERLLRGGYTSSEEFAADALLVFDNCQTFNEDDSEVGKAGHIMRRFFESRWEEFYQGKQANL
measurement_notes: Binding affinity to human BAZ2A (M1792 to L1905 residues) expressed in bacterial expression system by BROMOscan assay
pKd: −log10 of the molar value.
measure: pKd

// query State the recorded pKd for this entry: CCS(=O)(=O)Nc1ccc(Oc2ccc(F)cc2F)c(-c2cn(C)c(=O)c3[nH]ccc23)c1
// result < 6.00

###

test_system: Bromodomain and PHD finger-containing protein 3 (Homo sapiens)
Sequence (Q9ULD4 whole entry): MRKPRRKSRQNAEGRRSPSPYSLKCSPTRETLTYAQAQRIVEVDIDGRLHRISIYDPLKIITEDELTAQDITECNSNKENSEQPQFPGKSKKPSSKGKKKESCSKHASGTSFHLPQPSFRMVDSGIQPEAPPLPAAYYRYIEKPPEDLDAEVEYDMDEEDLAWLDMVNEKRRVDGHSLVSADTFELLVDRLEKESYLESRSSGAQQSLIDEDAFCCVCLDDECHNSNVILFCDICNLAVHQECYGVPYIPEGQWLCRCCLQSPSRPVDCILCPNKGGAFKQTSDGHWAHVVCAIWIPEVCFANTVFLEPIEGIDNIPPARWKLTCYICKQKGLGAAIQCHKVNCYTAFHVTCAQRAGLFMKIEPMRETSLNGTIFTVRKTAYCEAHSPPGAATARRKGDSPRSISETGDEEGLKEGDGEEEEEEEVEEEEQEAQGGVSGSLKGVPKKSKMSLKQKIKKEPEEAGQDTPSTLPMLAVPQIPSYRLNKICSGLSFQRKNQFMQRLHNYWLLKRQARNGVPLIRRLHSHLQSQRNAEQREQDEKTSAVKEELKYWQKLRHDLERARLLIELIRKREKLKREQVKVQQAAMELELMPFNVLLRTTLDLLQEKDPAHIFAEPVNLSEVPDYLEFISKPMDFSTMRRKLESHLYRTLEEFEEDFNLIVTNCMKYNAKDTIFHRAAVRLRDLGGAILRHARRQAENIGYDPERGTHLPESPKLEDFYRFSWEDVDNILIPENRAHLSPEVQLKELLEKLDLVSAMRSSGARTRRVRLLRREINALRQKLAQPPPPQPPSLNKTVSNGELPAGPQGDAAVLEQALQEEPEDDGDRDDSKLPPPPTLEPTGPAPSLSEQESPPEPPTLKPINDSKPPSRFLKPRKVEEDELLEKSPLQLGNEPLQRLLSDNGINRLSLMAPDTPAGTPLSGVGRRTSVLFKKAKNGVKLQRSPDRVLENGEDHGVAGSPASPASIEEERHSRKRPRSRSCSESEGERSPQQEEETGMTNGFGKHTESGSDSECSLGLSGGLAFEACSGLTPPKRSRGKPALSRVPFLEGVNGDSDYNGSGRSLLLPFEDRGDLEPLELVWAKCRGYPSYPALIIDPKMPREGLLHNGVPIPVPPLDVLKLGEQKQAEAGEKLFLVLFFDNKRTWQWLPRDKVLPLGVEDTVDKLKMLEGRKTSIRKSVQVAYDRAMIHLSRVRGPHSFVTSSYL
measurement_notes: Binding affinity to human BRPF3 (E588 to G701 residues) expressed in bacterial expression system by BROMOscan assay
measure: Kd

// query State the recorded Kd for this entry: CCS(=O)(=O)Nc1ccc(Oc2ccc(F)cc2F)c(-c2cn(C)c(=O)c3[nH]ccc23)c1
// result > 1000 nM
